- tested.system: human full-length VWF (human, UniProt P04275 764-2813)
- method.description: SPR, Biacore T200, antibody captured on Protein A, full-length VWF as analyte, single-cycle kinetics
The following binders are shown together with reported Kd values.

binder | unit.abbrev | Kd
1-A2_H1_VL-par (antibody, human IgG1, kappa, V domains shown, also called 1-A2_H1 (hIgG1)) VH: QVQLVESGGGVVQPGRSLRLSCAASGIDLTSNAMNWVRQAPGKGLEWVAGIYGHDTSYYAAWAKGRFTISRDNSKNTLYLQMNSLRAEDTAVYYCARGFIYFDIWGQGTLVTVSS VL: AIEMTQTPPSLSASVGETVRIRCLASEDIYSGISWYQQKPGKPPTLLIYGASNLESGVPPRFSGSGSGTDYTLTIGGVQAEDAATYYCLGGHSHSTTDLTFGAGTKVEIKT | nM | 0.0238
4-H3_H7_L1 (antibody, human IgG1, kappa, V domains shown, humanised, human IgG1 kappa) VH: QVQLVESGGGVVQPGRSLRLSCAASGIDLTSNAMNWVRQAPGKGLEWIGGIYGHDTSYYAAWAKGRFTISRDNSKNTVYLQMNSLRAEDTATYFCARGFIYFDIWGQGTLVTVSS VL: DYQMTQSPSSLSASVGDRVTITCLASEDIASGISWYQQKPGKAPKLLIYGASNLESGVPSRFSGSGSGTDYTLTISSLQPEDFATYYCLGGYSFSSNGLTFGGGTKVEIKT | nM | 0.00584
4-H3_H7_VL-par (antibody, human IgG1, kappa, V domains shown, also called 4-H3_H7 (hIgG1)) VH: QVQLVESGGGVVQPGRSLRLSCAASGIDLTSNAMNWVRQAPGKGLEWIGGIYGHDTSYYAAWAKGRFTISRDNSKNTVYLQMNSLRAEDTATYFCARGFIYFDIWGQGTLVTVSS VL: AYDMTQTPPSLSASVGETVRIRCLASEDIASGISWYQQKPGKPPTLLIYGASNLESGVPPRFSGSGSGTDYTLTIGGVQAEDAATYYCLGGYSFSSNGLTFGAGTKVEIKT | nM | 0.0104

Taken from patent US20240228660A1.
